experiment: self-splicing fitness, log relative to wild type (ln ratio); higher = more splicing; Tetrahymena group I intron in knt gene, E. coli kanamycin selection, DiMSum; sequences stand for … in CUCUCU…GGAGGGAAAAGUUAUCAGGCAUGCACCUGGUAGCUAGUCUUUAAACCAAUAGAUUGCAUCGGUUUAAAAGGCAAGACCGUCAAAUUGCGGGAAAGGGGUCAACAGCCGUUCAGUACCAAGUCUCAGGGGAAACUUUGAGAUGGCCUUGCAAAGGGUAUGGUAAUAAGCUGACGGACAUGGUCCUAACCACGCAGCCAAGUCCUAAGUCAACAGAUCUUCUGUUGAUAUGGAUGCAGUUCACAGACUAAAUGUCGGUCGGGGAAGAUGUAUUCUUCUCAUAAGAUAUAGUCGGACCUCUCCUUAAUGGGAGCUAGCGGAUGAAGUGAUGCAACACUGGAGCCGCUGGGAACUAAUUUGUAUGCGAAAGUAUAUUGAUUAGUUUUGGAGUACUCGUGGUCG; settings: 37 °C;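 further: selection with 25 µg/mL kanamycin versus none on LB agar overnight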
Assay Metric: self-splicing fitness (ln)

1. GCAAAGCAAUAUUACGUAGG; -0.897
2. AGGCAGCAAUAUUACGGAUC; -0.495
3. CUGUAGCAAUAUUACGUGCC; -2.21
4. GAUGAGCAAUAUUACGGUGC; -1.53
5. AUCAAGCAAUAUUACGGCCG; -0.00151
6. CAGUAGCAAUAUUACGCCAU; -2.87
7. AGCGAGCAAUAUUACGGGCC; -2.88
8. GCGGAGCAAUAUUACGAUUC; -1.09
9. CUCGAGCAAUAUUACGGAAA; -1.37
10. CCCUAGCAAUAUUACGUGCA; -2.92
11. AGGCAGCAAUAUUACGGUCC; -1.64
12. UCUGAGCAAUAUUACGAGCU; -2.23
13. AUUUAGCAAUAUUACGUAGA; -2.48
14. CUCUAGCAAUAUUACGGCUG; -2.31
15. GAAUAGCAAUAUUACGUGUU; -0.873
16. CACAAGCAAUAUUACGACGG; 0.557
17. ACAUAGCAAUAUUACGACCC; -0.798
18. ACAAAGCAAUAUUACGGAAG; -1.61
19. UUUCAGCAAUAUUACGAAGA; -0.0649
20. UAACAGCAAUAUUACGCAGA; -1.47
21. ACGAAGCAAUAUUACGACCA; -0.848
22. CACGAGCAAUAUUACGAAUG; -2.17
23. UGUUAGCAAUAUUACGUCAG; -0.486
24. ACCGAGCAAUAUUACGUGGA; -2.99
25. GUAUAGCAAUAUUACGGGUG; -2.86
26. UACGAGCAAUAUUACGAAAA; -2.28
27. AGUCAGCAAUAUUACGCUAC; -4.03
28. UAAGAGCAAUAUUACGGAUC; -1.64
29. AGUUAGCAAUAUUACGAGAC; -2.02
30. GGGGAGCAAUAUUACGUUAA; -1.95
31. UGAAAGCAAUAUUACGUAAU; -0.793
32. UACAAGCAAUAUUACGCUUU; -2.29
33. AUCGAGCAAUAUUACGAGUU; -1.31
34. AGGAAGCAAUAUUACGUGGC; -3.3
35. AUCUAGCAAUAUUACGUAGA; -0.832
36. CCUCAGCAAUAUUACGCCGA; -3.48
37. GUGAAGCAAUAUUACGGAAU; -0.308
38. CUUGAGCAAUAUUACGAAUC; -1.86
39. CAUGAGCAAUAUUACGAAUC; -2.57
40. GCGAAGCAAUAUUACGACAU; 0.0421
41. AUAUAGCAAUAUUACGUACA; -0.785
42. CAGAAGCAAUAUUACGGAUC; -2.62
43. GCGUAGCAAUAUUACGGUCG; -1.07
44. GGGAAGCAAUAUUACGUGUC; -2.28
45. GAUUAGCAAUAUUACGCACU; 0.415
46. CAGUAGCAAUAUUACGCCUA; -0.218
47. UACGAGCAAUAUUACGUACU; -1.76
48. CAUUAGCAAUAUUACGGCAU; -1.66
49. UUACAGCAAUAUUACGAUUC; -0.667
50. ACCUAGCAAUAUUACGUCGC; -0.636
51. CCAUAGCAAUAUUACGAUUC; -2.89
52. GCCGAGCAAUAUUACGAAUC; -0.92
53. CGUAAGCAAUAUUACGUGUA; -0.592
54. UUGAAGCAAUAUUACGAGUC; -2.8
55. UGCGAGCAAUAUUACGUUCG; -1.25
56. AUGCAGCAAUAUUACGAGGA; -2.9
57. CCUCAGCAAUAUUACGCUUC; -3.01
58. CGAUAGCAAUAUUACGUACA; -0.0364
59. AAGCAGCAAUAUUACGAUAC; -1.7
60. CCACAGCAAUAUUACGAGAC; -3.01
61. AGGUAGCAAUAUUACGCGAG; -0.6
62. CUUAAGCAAUAUUACGGGGC; -2.63
63. GGUGAGCAAUAUUACGAAUG; -2.36
64. AAACAGCAAUAUUACGCUUG; -0.605
65. UAAUAGCAAUAUUACGGAUG; -0.737
66. GUGCAGCAAUAUUACGGUUA; -0.164
67. UCCCAGCAAUAUUACGCUAC; -2.27

###

test: self-splicing fitness, log relative to wild type (ln ratio); higher = more splicing; Tetrahymena group I intron in knt gene, E. coli kanamycin selection, DiMSum; sequences stand for … in CUCUCU…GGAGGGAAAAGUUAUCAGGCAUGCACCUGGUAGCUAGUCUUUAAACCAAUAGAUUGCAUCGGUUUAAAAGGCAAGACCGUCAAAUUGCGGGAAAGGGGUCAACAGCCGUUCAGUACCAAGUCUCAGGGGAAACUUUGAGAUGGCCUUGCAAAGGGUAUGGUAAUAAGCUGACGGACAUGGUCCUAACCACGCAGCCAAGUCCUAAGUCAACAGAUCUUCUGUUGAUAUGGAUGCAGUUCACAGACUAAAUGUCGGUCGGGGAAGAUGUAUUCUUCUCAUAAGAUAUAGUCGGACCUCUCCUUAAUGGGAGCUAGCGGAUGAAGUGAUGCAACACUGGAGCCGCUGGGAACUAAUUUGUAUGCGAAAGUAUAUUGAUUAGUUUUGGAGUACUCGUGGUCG; conditions: 30 °C
Assay Metric: self-splicing fitness (ln)

1. CCUUAGCAAUAUUACGGUGG; -2.71
2. GAUAAGCAAUAUUACGUUGC; -3.38
3. CAACAGCAAUAUUACGGCCA; -2.55
4. UACGAGCAAUAUUACGCGCG; -1.35
5. GCAUAGCAAUAUUACGCUUA; -1.6
6. CUGCAGCAAUAUUACGGGCG; -1.3
7. AAGAAGCAAUAUUACGGAUC; -1.23
8. AGUGAGCAAUAUUACGAUGU; -3.64
9. AUCUAGCAAUAUUACGCCUA; -1.09
10. CCUCAGCAAUAUUACGGCGC; -3.57
11. UGAAAGCAAUAUUACGUGGC; -3.37
12. GCUCAGCAAUAUUACGCAUC; -0.653
13. AUCGAGCAAUAUUACGAGUU; -2.66
14. GGGUAGCAAUAUUACGAUAC; -1.98
15. UCAAAGCAAUAUUACGAAUG; -1.71
16. UAGUAGCAAUAUUACGCCCU; -1.34

###

assay: self-splicing fitness, log relative to wild type (ln ratio); higher = more splicing; Tetrahymena group I intron in knt gene, E. coli kanamycin selection, DiMSum; sequences stand for … in CUCUCU…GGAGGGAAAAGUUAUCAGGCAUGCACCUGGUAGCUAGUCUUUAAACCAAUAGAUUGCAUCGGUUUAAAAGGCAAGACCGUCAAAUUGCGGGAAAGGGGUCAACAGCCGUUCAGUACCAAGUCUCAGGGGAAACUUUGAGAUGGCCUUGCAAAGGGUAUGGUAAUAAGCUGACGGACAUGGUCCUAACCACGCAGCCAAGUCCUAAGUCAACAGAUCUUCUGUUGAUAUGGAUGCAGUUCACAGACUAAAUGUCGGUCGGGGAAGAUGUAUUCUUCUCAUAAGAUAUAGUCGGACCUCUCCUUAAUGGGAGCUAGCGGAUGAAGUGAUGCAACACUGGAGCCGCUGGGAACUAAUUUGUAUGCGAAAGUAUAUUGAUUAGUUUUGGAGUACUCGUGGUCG; conditions: 30 °C
I would appreciate it if you labelled entries rule met when self-splicing fitness (ln) is -3 or higher, otherwise rule not met.

1. UGGUAGCAAUAUUACGCCUA; rule met
2. GUGGAGCAAUAUUACGUAAU; rule met
3. UUGUAGCAAUAUUACGUAGA; rule met
4. UGAGAGCAAUAUUACGAUCA; rule met
5. CGGUAGCAAUAUUACGGUUA; rule met
6. CAGUAGCAAUAUUACGGUUG; rule met
7. GAGAAGCAAUAUUACGACUG; rule met
8. UAUCAGCAAUAUUACGGCUU; rule met
9. AGGAAGCAAUAUUACGCUUC; rule met
10. UUAAAGCAAUAUUACGGGCG; rule met
11. CACUAGCAAUAUUACGGAAA; rule met
12. UGUUAGCAAUAUUACGUUCG; rule met
13. UUAAAGCAAUAUUACGGCCA; rule met
14. GUUUAGCAAUAUUACGUCCA; rule met
15. GUCAAGCAAUAUUACGAAUG; rule not met
16. AGGUAGCAAUAUUACGGCAC; rule met
17. UACAAGCAAUAUUACGGCUC; rule met
18. UAUGAGCAAUAUUACGGACU; rule not met
19. GGAUAGCAAUAUUACGUCGG; rule met
20. GUGGAGCAAUAUUACGUAUG; rule not met
21. GGAGAGCAAUAUUACGUGUU; rule not met
22. UAAGAGCAAUAUUACGGAUC; rule not met
23. ACAAAGCAAUAUUACGGUUU; rule met
24. UUUUAGCAAUAUUACGUCCA; rule met
25. GACAAGCAAUAUUACGAGGU; rule not met
26. AGGUAGCAAUAUUACGUAUU; rule met
27. AAUGAGCAAUAUUACGAUAC; rule not met
28. CGCGAGCAAUAUUACGUGGC; rule met
29. UCGCAGCAAUAUUACGGGGU; rule not met
30. CCUGAGCAAUAUUACGGAAC; rule met
31. GUAGAGCAAUAUUACGCUUG; rule met
32. UACGAGCAAUAUUACGAUCA; rule met
33. ACCGAGCAAUAUUACGAGUG; rule met
34. AGCCAGCAAUAUUACGAAUU; rule not met
35. UGGUAGCAAUAUUACGCUUA; rule met
36. CUUUAGCAAUAUUACGGCAG; rule met
37. UGUUAGCAAUAUUACGACGU; rule met
38. GAACAGCAAUAUUACGACGU; rule met
39. AUCAAGCAAUAUUACGUCUU; rule met
40. UUCGAGCAAUAUUACGCAGG; rule met
41. GCGCAGCAAUAUUACGUACA; rule met
42. UAAAAGCAAUAUUACGAUCU; rule met
43. CAGCAGCAAUAUUACGACGG; rule met
44. AAGCAGCAAUAUUACGAUGA; rule met
45. UAACAGCAAUAUUACGCAUC; rule not met
46. AUGUAGCAAUAUUACGGUGA; rule met
47. GCAGAGCAAUAUUACGGGGU; rule not met
48. AAUCAGCAAUAUUACGCGCC; rule met
49. AGCUAGCAAUAUUACGGCAG; rule met
50. GCGUAGCAAUAUUACGUUCU; rule met
51. UGGAAGCAAUAUUACGAAGC; rule not met
52. GGGCAGCAAUAUUACGAUGC; rule met
53. UGUCAGCAAUAUUACGCGCA; rule met
54. ACCAAGCAAUAUUACGGUAC; rule not met
55. UUUCAGCAAUAUUACGAAGG; rule met
56. AAUAAGCAAUAUUACGCAAA; rule met
57. CAUUAGCAAUAUUACGAUGA; rule met
58. GAUUAGCAAUAUUACGGAGA; rule met
59. AUAUAGCAAUAUUACGAUCA; rule met
60. CUUCAGCAAUAUUACGGUGC; rule not met
61. AAUGAGCAAUAUUACGACCU; rule met
62. GUGAAGCAAUAUUACGCAGG; rule met
63. CGAUAGCAAUAUUACGGCUC; rule met
64. ACCUAGCAAUAUUACGACCC; rule met
65. GGGGAGCAAUAUUACGCUUG; rule met
66. UGUCAGCAAUAUUACGGUCC; rule met

Value source: the supplement of paper PMC7877785
